Test system: Echinochloa crus-galli (ECHCG)
Assay: Glasshouse herbicidal test, pre- and post-emergence, Echinochloa crus-galli
Type: in vivo
Settings: pre-emergence, 250 g/h, evaluated after 13 days, five point scale
measured-quantity: percentage damage caused to the plant, ECHCG PRE

Guide cases for percentage damage caused to the plant, ECHCG PRE, answers given:
INSERT INTO results (compound, meas_value) VALUES
  ('CC#Cc1cc(C)c(C2C(=O)CC3(CCN(C(=O)C(F)(F)C(F)F)CC3)CC2=O)c(C)c1 [Compound A29]', '5 (5=80-100%)'),
  ('CC#Cc1cc(C)c(C2=C(OC(=O)OC)CC3(CCN(C(C)=O)CC3)CC2=O)c(OC)c1 [Compound P18]', '5 (5=80-100%)');

Query CC#Cc1cc(C)c(C2=C(OC(=O)C(C)C)CC3(CCN(C(C)=O)CC3)CC2=O)c(C)c1 [Compound P12] yields percentage damage caused to the plant, ECHCG PRE of 5 (5=80-100%)

The measured percentage damage caused to the plant, ECHCG PRE associated with CC#Cc1cc(C)c(C2=C(OC(=O)C(C)C)CC3(CCN(C(=O)C(C)C)CC3)CC2=O)c(C)c1 [Compound P7] reads 5 (5=80-100%)

Where these numbers come from: patent US11542235B2
